Please respond with reported growth for every item in the list.
Tested on: RXF 393 renal
run_description: NCI-60 one-dose screen, 48 h (100 = growth as untreated, 0 = no growth, -100 = all killed)
experimental_parameters: 10 µM unless noted
The panel holds about 83,000 compounds, 20% with a hit somewhere; the sample as a whole holds those more often. Calls of active or inactive are those of the source. The calls were made as follows: active = growth percent below 10; inactive = the rest.

Task: Would you mind telling me what growth value was observed for CN1CCN(CC(=O)Nc2nc(-c3cccc(NS(=O)(=O)c4cccc5c(N(C)C)cccc45)c3)cs2)CC1 ?
Result: 70.4% (inactive)

Task: Would you mind telling me what growth value was observed for Fc1c[c-]c(-c2ccccn2)c(F)c1.[CH3-].[Pt+2].c1ccc(P(C[PH+](c2ccccc2)c2ccccc2)c2ccccc2)cc1 ?
Result: -82.3% (active)

Task: Would you mind telling me what growth value was observed for COC(=O)[C@]12CC[C@@H](C)[C@H](C)[C@@H]1C1=CC[C@@H]3[C@@]4(C)C(C=O)=C[C@@](C)(COC(C)=O)[C@@H]4C(=O)C[C@@]3(C)[C@]1(C)CC2 ?
Result: 55.8% (inactive)

Task: Would you mind telling me what growth value was observed for CC1O[C@@H](OC2[C@H](OC(=O)/C=C/c3ccc(O)c(O)c3)C(COC3O[C@H](C)C(O)C(O)[C@@H]3O)O[C@@H](OCCc3ccc(O)c(O)c3)[C@H]2O)[C@@H](O)C(O)[C@H]1O (some centres not stated) ?
Result: 125% (inactive)

Task: Would you mind telling me what growth value was observed for COc1ccc(NC(=O)c2nc(-c3cc(OC)c(OC)c(OC)c3)n(-c3cccc4ccccc34)n2)cc1OC ?
Result: 66.1% (inactive)

Task: Would you mind telling me what growth value was observed for COC(=O)[C@]12CC[C@@H](C)[C@H](C)[C@@H]1C1=CC[C@@H]3[C@@]4(C)C(C=O)=C[C@@](C)(CO)[C@@H]4[C@H](O)C[C@@]3(C)[C@]1(C)CC2 ?
Result: -82% (active)

Task: Would you mind telling me what growth value was observed for Nc1n[nH]c2cc(F)c([C@@H]3Nc4c(F)cc5[nH]ncc5c4[C@H]4C5CCC(C5)[C@@H]34)cc12 (some centres not stated) ?
Result: 41.3% (inactive)

Task: Would you mind telling me what growth value was observed for O=C(N/N=C/c1ccncc1)c1ccc(C(F)(F)F)nc1Nc1cccc(C(F)(F)F)c1 ?
Result: -8.63% (active)

Task: Would you mind telling me what growth value was observed for Cc1ccc(-c2cc(-c3ccccc3C)[nH]c(=O)c2C#N)s1 ?
Result: 92% (inactive)

Task: Would you mind telling me what growth value was observed for COc1ccc(-c2nc3c(N)c(CO)c(C)nc3o2)cc1 ?
Result: 96% (inactive)

Task: Would you mind telling me what growth value was observed for O=[N+]([O-])c1ccc(Sc2cccc[n+]2[O-])c2nonc12 ?
Result: 54.5% (inactive)

Task: Would you mind telling me what growth value was observed for CN1CCN(C(=O)c2c3c(n4ccccc24)C(=O)c2ncccc2C3=O)CC1 ?
Result: 60.8% (inactive)

Task: Would you mind telling me what growth value was observed for NC[C@H](O)c1ccc(O)c(O)c1 ?
Result: 117% (inactive)

Task: Would you mind telling me what growth value was observed for COc1ccc(NC(=O)CSc2nnc(-c3cc(-c4ccc(S(N)(=O)=O)cc4)nc4ccccc34)n2-c2ccccc2)cc1 ?
Result: 81.9% (inactive)

Task: Would you mind telling me what growth value was observed for O=C(/C=C/c1ccc(Cl)nc1)c1ccc(Cl)cc1Cl ?
Result: 104% (inactive)

Task: Would you mind telling me what growth value was observed for COc1ccc(S(=O)(=O)NCCNc2nccc(-c3c(-c4cccc(F)c4)nc4sccn34)n2)cc1 ?
Result: 28.8% (inactive)

Task: Would you mind telling me what growth value was observed for N#CCN1C(=O)C2C3=C(CCCC3)SC2N=C1CN1CCCC1 (configuration not stated) ?
Result: 88.6% (inactive)

Task: Would you mind telling me what growth value was observed for O=C(CSc1nnc(-c2ccc(NC(=O)c3cccnc3)cc2)o1)N[C@@H](Cc1ccc(O)cc1)C(=O)O ?
Result: 109% (inactive)

Task: Would you mind telling me what growth value was observed for COc1ccc(-c2nc(SCCC(C)C)nc(N/N=C\c3ccccc3O)c2C#N)cc1 ?
Result: 76.1% (inactive)

Task: Would you mind telling me what growth value was observed for O=C1/C(=C/c2ccc(Br)cc2)C=C(c2ccccc2)N1CCc1ccccc1 ?
Result: 31.5% (inactive)

Task: Would you mind telling me what growth value was observed for CCn1c(C)nc2cc(C(N)=O)ccc21 ?
Result: 93.4% (inactive)

Task: Would you mind telling me what growth value was observed for CC(=O)c1nc(Nc2ccc(C)cc2)sc1C ?
Result: 96.2% (inactive)

Task: Would you mind telling me what growth value was observed for O=Cc1ccc(O)c2ncccc12 ?
Result: 76.6% (inactive)

Task: Would you mind telling me what growth value was observed for Fc1ccc(CNc2c3ccccc3nc3ccccc23)cc1F ?
Result: 7.37% (active)

Task: Would you mind telling me what growth value was observed for COC(=O)[C@]12CC[C@@H](C)[C@H](C)[C@@H]1C1=CC[C@@H]3[C@@]4(C)C(C=O)=C[C@@](C)(COC(C)=O)[C@@H]4[C@H](O)C[C@@]3(C)[C@]1(C)CC2 ?
Result: -82% (active)

Task: Would you mind telling me what growth value was observed for CCOc1c(C#N)nnc2c(C#N)c(NC(=O)c3ccccc3)nn12 ?
Result: 110% (inactive)

Task: Would you mind telling me what growth value was observed for Cn1c(I)c(C#C[Si](C)(C)C)c(=O)n(C(=O)c2ccccc2)c1=O ?
Result: -81.5% (active)

Task: Would you mind telling me what growth value was observed for Cc1c(C)c2c(c(C)c1OCC(=O)O)CC[C@@](C)(CCC[C@@H](C)CCC[C@@H](C)CCCC(C)C)O2 ?
Result: -34.5% [50 µM] (active)

Task: Would you mind telling me what growth value was observed for C=C1C(=O)O[C@H]2[C@H]1CC/C(COC(=O)C(=O)c1c[nH]c3ccc(OC)cc13)=C\CC[C@@]1(C)O[C@@H]21 ?
Result: -93.1% (active)

Task: Would you mind telling me what growth value was observed for CN1CCN(CCCOc2ccc3nc(Nc4ccc(F)c(F)c4)ccc3c2)CC1 ?
Result: 48.6% (inactive)

Task: Would you mind telling me what growth value was observed for COC(=O)c1c2c(c[n+]([O-])c1C)C(=O)C=CC2=O ?
Result: 57.3% (inactive)

Task: Would you mind telling me what growth value was observed for Cc1ccc(Cl)c(NS(=O)(=O)c2ccc(-c3cnc(C4CC4)o3)cc2)c1 ?
Result: 9.98% (active)
